Tested on: Staphylococcus aureus
Assay: Antibacterial activity against fluoroquinolone-resistant Staphylococcus aureus harboring DNA gyrase M121K mutant
Type: functional
Reported MIC by item:

Some molecules with known MIC results, for comparison:
molecule | MIC
COc1ccc2nccc([C@@H](O)CC[C@@H]3CCN(C4CC(c5c(F)ccc(Cl)c5F)C4)C[C@@H]3C(=O)O)c2c1 (some centres not stated) | > 64 µg/mL
COc1ccc2nccc([C@@H](O)CC[C@@H]3CCN(C4CC(c5cc(F)c(F)cc5F)C4)C[C@@H]3C(=O)O)c2c1 (some centres not stated) | 64 µg/mL
COc1ccc2nccc([C@@H](O)CC[C@@H]3CCN(C4CC(c5cc(F)ccc5F)C4)C[C@@H]3C(=O)O)c2c1 (some centres not stated) | 5.7 µg/mL
COc1ccc2nccc([C@@H](O)CC[C@@H]3CCN(C4CC(c5c(OC)ccc(F)c5F)C4)C[C@@H]3C(=O)O)c2c1 (some centres not stated) | > 64 µg/mL

Incoming: Fill in MIC for COc1ccc2nccc([C@@H](O)CC[C@@H]3CCN(C4CC(c5cccc(Cl)c5F)C4)C[C@@H]3C(=O)O)c2c1 (some centres not stated) tested with Staphylococcus aureus.
Outgoing: > 64 µg/mL

Incoming: Send back Staphylococcus aureus MIC of COc1ccc2nccc([C@@H](O)CC[C@@H]3CCN(C4CC(c5cccc(C(F)(F)F)c5F)C4)C[C@@H]3C(=O)O)c2c1 (some centres not stated) only.
Outgoing: > 64 µg/mL

Incoming: Write MIC of COc1ccc2nccc([C@@H](O)CC[C@@H]3CCN(C4CC(c5cc(F)ccc5C(F)(F)F)C4)C[C@@H]3C(=O)O)c2c1 (some centres not stated) ; system used: Staphylococcus aureus
Outgoing: 32 µg/mL

###

Reported IC50 is given for each of the following molecules.
Biological target: UniProtKB Q12809
Experiment: Inhibition of human ERG channel in HEK293 cells by voltage-gated patch clamp technique
The reply should be a number in µM, with the unit left off.

Worked set:
molecule | test_value
COc1ccc2nccc([C@@H](O)CC[C@@H]3CCN(C4CC(c5cc(F)cc(F)c5)C4)C[C@@H]3C(=O)O)c2c1 (stereo not given in full) | 7.18
COc1ccc2nccc([C@@H](O)CC[C@@H]3CCN(C4CC(c5ccccc5)C4)C[C@@H]3C(=O)O)c2c1 (stereo not given in full) | 24.9
COc1ccc2nccc([C@@H](O)CC[C@@H]3CCN(C4CC(c5cc(F)ccc5F)C4)C[C@@H]3C(=O)O)c2c1 (stereo not given in full) | 9.97
COc1ccc2ncc(F)c([C@@H](O)CC[C@@H]3CCN(CCSc4cccs4)C[C@@H]3C(=O)O)c2c1 | 23.6

Incoming: Supply measured IC50 of COc1ccc2nccc([C@@H](O)CC[C@@H]3CCN(C4CC(c5cc(F)cc(F)c5F)C4)C[C@@H]3C(=O)O)c2c1 (stereo not given in full) in your reply.
Outgoing: 30.9

###

Below, each of the compounds is paired with its reported Vd value.
Experiment: Volume of distribution at steady state in rat at 2 mg/kg, iv and 5 mg/kg, po
Type: ADME, organism-based
Conditions: in vivo, read-out: Vdss
Supply the numeric figure in L/kg, leaving out any unit text.

compound | Vd, L/kg
COc1ccc2nccc([C@@H](O)CC[C@@H]3CCN(C4CC(c5ccccc5)C4)C[C@@H]3C(=O)O)c2c1 (some centres undefined) | 1.24
COc1ccc2ncc(F)c([C@@H](O)CC[C@@H]3CCN(CCSc4cccs4)C[C@@H]3C(=O)O)c2c1 | 2.55
COc1ccc2nccc([C@@H](O)CC[C@@H]3CCN(C4CC(c5c(F)cccc5F)C4)C[C@@H]3C(=O)O)c2c1 (some centres undefined) | 3

Consider the additional compound presented here.
Incoming: Supply Vd value. Item: COc1ccc2nccc([C@@H](O)CC[C@@H]3CCN(C4CC(c5cc(F)ccc5F)C4)C[C@@H]3C(=O)O)c2c1 (some centres undefined)
Outgoing: 1.3

###

Molecular target: DNA gyrase (Staphylococcus aureus, UniProt P0A0K8+P20831)
Assay: Inhibition of Staphylococcus aureus DNA gyrase
The entries below come with measured IC50 values attached.
I only need the number, in µM, no unit after it.

compound | unit_string | IC50
COc1ccc2nccc([C@@H](O)CC[C@@H]3CCN(C4CC(c5cc(SC)ccc5F)C4)C[C@@H]3C(=O)O)c2c1 (stereo not given in full) | µM | 3.13

Next compound, IC50 to be filled in.
Incoming: Give DNA gyrase (Staphylococcus aureus, UniProt P0A0K8+P20831) IC50 for the following compound: COc1ccc2nccc([C@@H](O)CC[C@@H]3CCN(C4CC(c5ccccc5OC)C4)C[C@@H]3C(=O)O)c2c1 (stereo not given in full)
Outgoing: 6.25

###

System: Staphylococcus aureus
Assay: Antibacterial activity against fluoroquinolone-resistant Staphylococcus aureus harboring DNA gyrase M121K mutant
Format: functional
recorded_metric: MIC

Look over these answered cases.
compound | study_system | recorded_metric | test_value
COc1ccc2nccc([C@@H](O)CC[C@@H]3CCN(C4CC(c5cccc(F)c5)C4)C[C@@H]3C(=O)O)c2c1 (stereo partly drawn) | Staphylococcus aureus | MIC | 32 µg/mL
COc1ccc2ncc(F)c([C@@H](O)CC[C@@H]3CCN(CCSc4cccs4)C[C@@H]3C(=O)O)c2c1 | Staphylococcus aureus | MIC | 64 µg/mL
COc1ccc2nccc([C@@H](O)CC[C@@H]3CCN(C4CC(c5cccc(F)c5C)C4)C[C@@H]3C(=O)O)c2c1 (stereo partly drawn) | Staphylococcus aureus | MIC | > 64 µg/mL
COc1ccc2nccc([C@@H](O)CC[C@@H]3CCN(C4CC(c5c(F)cc(F)cc5F)C4)C[C@@H]3C(=O)O)c2c1 (stereo partly drawn) | Staphylococcus aureus | MIC | > 64 µg/mL
COc1ccc2nccc([C@@H](O)CC[C@@H]3CCN(C4CC(c5ccc(Cl)cc5F)C4)C[C@@H]3C(=O)O)c2c1 (stereo partly drawn) | Staphylococcus aureus | MIC | > 64 µg/mL

Incoming: With Staphylococcus aureus as the test system, provide measured MIC for this compound: COc1ccc2nccc(C(O)CC[C@@H]3CCN(C/C=C/c4cc(F)ccc4F)C[C@@H]3C(=O)O)c2c1 (stereo partly drawn)
Outgoing: 13 µg/mL

Incoming: State, for Staphylococcus aureus, measured MIC of the compound listed here: COc1ccc2nccc([C@@H](O)CC[C@@H]3CCN(C4CC(c5ccccc5F)C4)C[C@@H]3C(=O)O)c2c1 (stereo partly drawn)
Outgoing: > 64 µg/mL

Incoming: Send back Staphylococcus aureus MIC of COc1ccc2nccc([C@@H](O)CC[C@@H]3CCN(C4CC(c5ccc(Br)cc5F)C4)C[C@@H]3C(=O)O)c2c1 (stereo partly drawn) only.
Outgoing: > 64 µg/mL

###

Each record here notes measured pIC50.
Experiment: Inhibition of Staphylococcus aureus DNA topoisomerase 4
Kindly note that pIC50 refers to -log10 of the concentration in mol/L and answer with the value alone.

Completed entries (count: 5):
molecule | pIC50
COc1ccc2nccc([C@@H](O)CC[C@@H]3CCN(C4CC(c5cc(F)cc(F)c5)C4)C[C@@H]3C(=O)O)c2c1 (stereo not given in full) | 4.82
COc1ccc2nccc([C@@H](O)CC[C@@H]3CCN(C4CC(c5cc(F)ccc5OC)C4)C[C@@H]3C(=O)O)c2c1 (stereo not given in full) | 4.43
COc1ccc2ncc(F)c([C@@H](O)CC[C@@H]3CCN(CCSc4cccs4)C[C@@H]3C(=O)O)c2c1 | 4.52
COc1ccc2nccc([C@@H](O)CC[C@@H]3CCN(C4CC(c5c(F)ccc(F)c5OC)C4)C[C@@H]3C(=O)O)c2c1 (stereo not given in full) | 4.60
COc1ccc2nccc([C@@H](O)CC[C@@H]3CCN(C4CC(c5cc(Cl)ccc5F)C4)C[C@@H]3C(=O)O)c2c1 (stereo not given in full) | 4.48

For the next question, use this molecule.
Incoming: Using known records, supply pIC50 for COc1ccc2nccc([C@@H](O)CC[C@@H]3CCN(C4CC(c5cc(F)c(F)cc5F)C4)C[C@@H]3C(=O)O)c2c1 (stereo not given in full)
Outgoing: 4.43

###

System: Staphylococcus aureus
Assay: Antibacterial activity against fluoroquinolone-resistant Staphylococcus aureus 1095
Assay type: functional
recorded_metric: MIC (mg/L)
Give the value in mg/L but do not write mg/L after it.

compound | MIC (mg/L)
COc1ccc2nccc([C@@H](O)CC[C@@H]3CCN(C4CC(c5cccc(F)c5C)C4)C[C@@H]3C(=O)O)c2c1 (some centres not stated) | 0.5
COc1ccc2nccc([C@@H](O)CC[C@@H]3CCN(C4CC(c5c(OC)ccc(F)c5F)C4)C[C@@H]3C(=O)O)c2c1 (some centres not stated) | 2
COc1ccc2nccc([C@@H](O)CC[C@@H]3CCN(C4CC(c5cc(F)ccc5OC)C4)C[C@@H]3C(=O)O)c2c1 (some centres not stated) | 4

Incoming: Entry COc1ccc2nccc([C@@H](O)CC[C@@H]3CCN(C4CC(c5cc(F)cc(F)c5)C4)C[C@@H]3C(=O)O)c2c1 (some centres not stated) needs its MIC filled in; supply it.
Outgoing: 0.25

Incoming: Quote MIC reported for COc1ccc2nccc([C@@H](O)CC[C@@H]3CCN(C4CC(c5cc(F)cc(F)c5OC)C4)C[C@@H]3C(=O)O)c2c1 (some centres not stated) please.
Outgoing: 2

Incoming: For the compound COc1ccc2nccc([C@@H](O)CC[C@@H]3CCN(C4CC(c5cccc(C(F)(F)F)c5F)C4)C[C@@H]3C(=O)O)c2c1 (some centres not stated) , give its reported MIC.
Outgoing: 0.5
